Below, each entry is listed with its recorded α-human koff.
Target: T1, human α-CGRP (Homo sapiens, UniProt P06881)
T1 construct: 1-37 (WT); purchased; host or cells: synthetic peptide
T1 sequence (P06881 83-119 limits assumed): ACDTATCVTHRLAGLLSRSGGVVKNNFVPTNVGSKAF
Test: Biacore affinity of antibody G1 Fab and variants to human α-CGRP
Format: binding
Conditions: 37° C., Fab, screening mode unless underlined
Form entry: value (s⁻¹) — number only.

molecule: M42: G1 variant: L1 R28N; L2 G50A,L56T; H2 E54K,A57N,H61F; HC-FW3 L99T,A100V (antibody, V domains shown) VH: EVQLVESGGGLVQPGGSLRLSCAASGFTFSNYWISWVRQAPGKGLEWVAEIRSKSDNSATFYAEAVKGRFTISRDNAKNSLYLQMNSLRAEDTAVYYCTVYFDYGLAIQNYWGQGTLVTVSS VL: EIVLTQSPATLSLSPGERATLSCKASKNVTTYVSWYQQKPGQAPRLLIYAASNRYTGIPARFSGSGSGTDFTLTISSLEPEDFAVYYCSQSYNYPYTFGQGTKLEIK
unit info: s⁻¹
α-human koff: 0.000417

Problem: Please report α-human koff for the following molecule: M29: G1 variant: L1 R28N,T30G; HC-FW3 L99T,A100V (antibody, V domains shown) VH: EVQLVESGGGLVQPGGSLRLSCAASGFTFSNYWISWVRQAPGKGLEWVAEIRSESDASATHYAEAVKGRFTISRDNAKNSLYLQMNSLRAEDTAVYYCTVYFDYGLAIQNYWGQGTLVTVSS VL: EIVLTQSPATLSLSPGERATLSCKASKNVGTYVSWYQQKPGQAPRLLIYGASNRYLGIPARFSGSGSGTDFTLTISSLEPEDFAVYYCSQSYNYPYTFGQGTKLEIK
Solution: 0.00038
